Data origin: a collection of fitness landscapes (doi:10.1126/science.1257360)

B1: PhoQ; a variant is named by its letters at X, in order, P23837 (parent)
chain: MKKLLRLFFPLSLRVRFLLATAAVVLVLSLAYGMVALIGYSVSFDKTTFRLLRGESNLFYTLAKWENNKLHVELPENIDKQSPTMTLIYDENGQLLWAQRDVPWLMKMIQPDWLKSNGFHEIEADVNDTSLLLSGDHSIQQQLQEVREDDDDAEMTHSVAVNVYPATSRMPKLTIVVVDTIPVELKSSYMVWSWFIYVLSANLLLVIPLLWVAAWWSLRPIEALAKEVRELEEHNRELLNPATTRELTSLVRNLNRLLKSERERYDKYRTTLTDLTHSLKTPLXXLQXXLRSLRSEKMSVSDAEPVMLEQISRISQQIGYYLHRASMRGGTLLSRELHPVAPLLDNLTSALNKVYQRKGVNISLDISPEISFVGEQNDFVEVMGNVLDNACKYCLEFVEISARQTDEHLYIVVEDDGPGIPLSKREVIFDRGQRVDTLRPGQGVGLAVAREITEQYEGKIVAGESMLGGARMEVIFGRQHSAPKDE

Variants of: B1
Assay: enrichment ratio after two sorts for PhoP signalling (ratio (wild type AVST 3.29)); higher = more functional
Conditions: with PhoP (E. coli)
In all, about 140,000 sequences were measured (“enrichment ratio after two sorts for PhoP signalling”: median about 0, highest 2% from about 11 on). The sample as a whole holds a higher share of the highest values than the screen did.
metric: enrichment ratio
Enter the number alone.

[[record]]
mutationspec = "ACLL"
metric = "enrichment ratio"
datavalue = 13.3

[[record]]
mutationspec = "AFMG"
metric = "enrichment ratio"
datavalue = 19.5

[[record]]
mutationspec = "AILK"
metric = "enrichment ratio"
datavalue = 2.69


Returns the measured enrichment ratio for the input variant. Input: AEVL
17.5

# iterate: TECC
30

# iterate: AESC
32.1

# iterate: AFCG
11.4

# iterate: ACLV
16

# iterate: ACLT
11.7
